These measurements were taken from PubChem BioAssay (Tox21).

# assay: qHTS assay to identify aromatase inhibitors - cell viability counter screen (AID 743084);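 note: cells stimulated with testosterone during compound exposure; nearly all actives have a fitted effect of over 55% in size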
# condition-summary: MCF-7 aro ERE viability, CellTiter-Fluor, 24 h; series mostly up to 70.3 µM
Records with an inconclusive call do not appear. Activity calls are given as the source filed them. Calls come from the whole dose curve; as a rule, active = well fitted cell-killing curve with a large enough effect in the repeat runs; inconclusive = weak or mixed curves, or effect the other way; inactive = no such curve, though single readings can be large or run the other way.
measure-name: outcome

INSERT INTO results (molecule, test_result) VALUES
  ('CN1C(=O)CCS(=O)(=O)C1c1ccc(Cl)cc1 (configuration not stated)', 'inactive'),
  ('CN(C)CCC#N', 'inactive'),
  ('COc1nc(NC(C)C)nc(NC(C)C)n1', 'inactive'),
  ('N#CN=C(N)N', 'inactive'),
  ('COC(C)(C)CCCC(C)C/C=C/C(C)=C/C(=O)OC(C)C (configuration not stated)', 'inactive'),
  ('CC(C)c1cccc(C(C)C)c1O', 'inactive'),
  ('OCC(O)CCl (configuration not stated)', 'inactive'),
  ('c1ccc2c(c1)CCCC2', 'inactive');

// returns reported outcome for input Nc1cc(Cl)cc(Cl)c1
inactive

// returns reported outcome for input CC12CC1(C)C(=O)N(c1cc(Cl)cc(Cl)c1)C2=O (configuration not stated)
inactive

// returns reported outcome for input OC[C@@H](O)[C@H]1O[C@@H]2O[C@H](C(Cl)(Cl)Cl)O[C@@H]2[C@H]1O
inactive
